Items are presented alongside their recorded PBM binding z-score.
# System: RXRa DBDmut IVT, anti-RXR (DBD mutation: RXRa K156A/R161A, NR concentration 90 nM)
# PROCEDURE SUMMARY: PBM binding z-score (relative to random genomic background probes); higher = stronger binding; sequences stand for … in GC…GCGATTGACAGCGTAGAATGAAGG
Please state the value as a number alone, without comment.

// solved cases for PBM binding z-score follow
# SEQUENCE CONTENT, PBM binding z-score
data = [
    ("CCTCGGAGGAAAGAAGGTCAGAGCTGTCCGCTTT", 0.0436),
    ("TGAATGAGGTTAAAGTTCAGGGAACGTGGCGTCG", 1.93),
    ("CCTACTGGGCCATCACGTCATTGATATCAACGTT", -0.0697),
    ("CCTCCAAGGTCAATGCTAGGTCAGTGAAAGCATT", 3.35),
    ("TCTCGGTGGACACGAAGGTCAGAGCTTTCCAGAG", 0.131),
    ("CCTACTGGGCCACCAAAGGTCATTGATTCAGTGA", 0.43),
]

input: Using the record for `ATATGTAGGTTAAGGATCATTCAGGTTGGTTCGC` , state its measured PBM binding z-score.
output: 0.797

input: Provide PBM binding z-score value for the following sequence: `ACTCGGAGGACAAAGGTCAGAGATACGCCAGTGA`
output: 1.01

###

# System: PXR:RXRa (NR concentration 270 nM, RXRa partner concentration 90 nM)
# PROCEDURE SUMMARY: PBM binding z-score (relative to random genomic background probes); higher = stronger binding; sequences stand for … in GC…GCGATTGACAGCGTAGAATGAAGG
Listed below: PBM binding z-score values for each entry.
Lab note: jot down the number only; don't add units.

Examples with their reported PBM binding z-score follow.
# SEQUENCE CONTENT, PBM binding z-score
rows = [
    ("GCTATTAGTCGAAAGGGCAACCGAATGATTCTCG", 0.446),
    ("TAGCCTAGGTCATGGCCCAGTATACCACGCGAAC", 1.91),
    ("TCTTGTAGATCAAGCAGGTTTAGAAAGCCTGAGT", 0.273),
    ("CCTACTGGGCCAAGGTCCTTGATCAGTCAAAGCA", -0.74),
    ("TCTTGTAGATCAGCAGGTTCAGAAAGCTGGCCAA", 0.644),
    ("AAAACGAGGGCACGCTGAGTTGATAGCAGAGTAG", 1.5),
    ("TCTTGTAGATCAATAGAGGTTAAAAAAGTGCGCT", 2.56),
    ("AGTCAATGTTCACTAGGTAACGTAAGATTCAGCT", -0.0899),
]

input: Query PBM binding z-score for `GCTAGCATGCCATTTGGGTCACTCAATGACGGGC`
output: 0.247

input: Provide one value: measured PBM binding z-score of `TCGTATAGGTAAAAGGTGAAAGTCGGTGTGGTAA`
output: 1.96

input: In one line, give reported PBM binding z-score of the entry `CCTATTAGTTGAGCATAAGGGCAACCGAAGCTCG` .
output: 0.18

###

Quick reference: PBM binding z-score of the listed items.
# Tested on: PXR homodimer (NR concentration 270 nM)
# PROCEDURE SUMMARY: PBM binding z-score (relative to random genomic background probes); higher = stronger binding; sequences stand for … in GC…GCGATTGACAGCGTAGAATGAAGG
Answer with a bare number; do not write a unit.

# SEQUENCE CONTENT, TEST TARGET, MEASURED RESULT
measured = [
    ("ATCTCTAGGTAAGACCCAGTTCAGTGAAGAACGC", "PXR homodimer (NR concentration 270 nM)", 1.45),
    ("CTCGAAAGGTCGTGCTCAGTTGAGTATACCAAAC", "PXR homodimer (NR concentration 270 nM)", 0.333),
    ("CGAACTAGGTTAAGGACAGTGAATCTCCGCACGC", "PXR homodimer (NR concentration 270 nM)", 0.015),
]

input: Report measured PBM binding z-score on PXR homodimer (NR concentration 270 nM); entry: `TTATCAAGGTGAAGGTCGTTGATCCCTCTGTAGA`
output: 0.515

input: Lab note: record PBM binding z-score of `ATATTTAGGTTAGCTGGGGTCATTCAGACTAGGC` tested on PXR homodimer (NR concentration 270 nM).
output: 5.08

input: Find PBM binding z-score for `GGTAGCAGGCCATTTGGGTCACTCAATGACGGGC` on PXR homodimer (NR concentration 270 nM) and write it down.
output: -0.0413

input: Find PBM binding z-score for `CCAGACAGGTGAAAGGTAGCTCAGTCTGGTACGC` on PXR homodimer (NR concentration 270 nM) and write it down.
output: -0.482

input: Answer with PBM binding z-score of `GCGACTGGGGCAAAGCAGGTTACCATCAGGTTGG` measured for PXR homodimer (NR concentration 270 nM).
output: -0.136

input: GET PBM binding z-score | system: PXR homodimer (NR concentration 270 nM) | item: `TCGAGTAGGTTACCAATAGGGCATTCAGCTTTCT`
output: -0.656

input: Jot down PBM binding z-score (PXR homodimer (NR concentration 270 nM)) of `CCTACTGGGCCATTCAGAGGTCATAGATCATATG` .
output: 1.2

input: Look up PXR homodimer (NR concentration 270 nM) data: PBM binding z-score of `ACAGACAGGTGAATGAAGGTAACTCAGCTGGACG` , then report it.
output: -0.221

input: Under PXR homodimer (NR concentration 270 nM), report PBM binding z-score for `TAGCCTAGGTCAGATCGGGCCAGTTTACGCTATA`
output: -0.787
